# Test system: SKOV3: human ovarian carcinoma cell line
# procedure.summary: Proliferation IC50 assay, oxic/hypoxic, SKOV3
# Type: cell-based
# condition: Table 3; IC50(aerobic)/IC10(hypoxic)
quantity.name: HCR (hypoxic cytotoxicity ratio) SKOV3
Form rule: numeric answer, no unit written next to it.

Specify measured HCR (hypoxic cytotoxicity ratio) SKOV3 for CN(C)CCOc1ccc2[nH]c(C(=O)N3CC(CCl)c4c3cc([N+](=O)[O-])c3cc(C(=O)NCCO)ccc43)cc2c1 (centres unmarked) .
160

Specify measured HCR (hypoxic cytotoxicity ratio) SKOV3 for CN(C)CCOc1ccc2[nH]c(C(=O)N3CC(CCl)c4c3cc([N+](=O)[O-])c3ccc(S(C)(=O)=O)cc43)cc2c1 (centres unmarked) .
2.7

Specify measured HCR (hypoxic cytotoxicity ratio) SKOV3 for COC(=O)c1ccc2c3c(cc([N+](=O)[O-])c2c1)N(C(=O)c1cc2cc(OC)c(OC)c(OC)c2[nH]1)CC3CCl (centres unmarked) .
4.0

Specify measured HCR (hypoxic cytotoxicity ratio) SKOV3 for COc1cc2cc(C(=O)N3CC(CCl)c4c3cc([N+](=O)[O-])c3cc(C#N)ccc43)[nH]c2c(OC)c1OC (centres unmarked) .
13

Specify measured HCR (hypoxic cytotoxicity ratio) SKOV3 for CC(=O)c1ccc2c3c(cc([N+](=O)[O-])c2c1)N(C(=O)c1cc2cc(OCCN(C)C)ccc2[nH]1)CC3CCl (centres unmarked) .
4.0

Specify measured HCR (hypoxic cytotoxicity ratio) SKOV3 for CN(C)CCOc1ccc2[nH]c(C(=O)N3CC(CCl)c4c3cc([N+](=O)[O-])c3cccc([N+](=O)[O-])c43)cc2c1 (centres unmarked) .
1.5

Specify measured HCR (hypoxic cytotoxicity ratio) SKOV3 for CN(C)CCOc1ccc2[nH]c(C(=O)N3CC(CCl)c4c3cc([N+](=O)[O-])c3cc(S(=O)(=O)NN)ccc43)cc2c1.Cl.Cl (centres unmarked) .
160

Specify measured HCR (hypoxic cytotoxicity ratio) SKOV3 for COc1cc2cc(C(=O)N3CC(CCl)c4c3cc([N+](=O)[O-])c3cc(C(C)=O)ccc43)[nH]c2c(OC)c1OC (centres unmarked) .
19

Specify measured HCR (hypoxic cytotoxicity ratio) SKOV3 for CC(=O)c1ccc2c([N+](=O)[O-])cc3c(c2c1)C(CCl)CN3C(=O)c1cc2cc(OCCN(C)C)ccc2[nH]1 (centres unmarked) .
1.3

Specify measured HCR (hypoxic cytotoxicity ratio) SKOV3 for COc1cc2cc(C(=O)N3CC(CCl)c4c3cc([N+](=O)[O-])c3cc(S(C)(=O)=O)ccc43)[nH]c2c(OC)c1OC (centres unmarked) .
1.9

Specify measured HCR (hypoxic cytotoxicity ratio) SKOV3 for COC(=O)c1ccc2c([N+](=O)[O-])cc3c(c2c1)C(CCl)CN3C(=O)c1cc2cc(OCCN(C)C)ccc2[nH]1 (centres unmarked) .
2.4

Specify measured HCR (hypoxic cytotoxicity ratio) SKOV3 for COc1cc2cc(C(=O)N3CC(CCl)c4c3cc([N+](=O)[O-])c3ccccc43)[nH]c2c(OC)c1OC (centres unmarked) [Compound R1, reference compound] .
2.8

Specify measured HCR (hypoxic cytotoxicity ratio) SKOV3 for CN(C)CCOc1ccc2[nH]c(C(=O)N3CCc4c3cc([N+](=O)[O-])c3c(S(N)(=O)=O)c(CCl)ccc43)cc2c1 .
4.6

Specify measured HCR (hypoxic cytotoxicity ratio) SKOV3 for CN(C)CCOc1ccc2[nH]c(C(=O)N3CC(CCl)c4c3cc([N+](=O)[O-])c3cc(S(=O)(=O)NO)ccc43)cc2c1.Cl (centres unmarked) .
55

Specify measured HCR (hypoxic cytotoxicity ratio) SKOV3 for COc1cc2cc(C(=O)N3CC(CCl)c4c3cc([N+](=O)[O-])c3cc(C(=O)NCCN(C)C)ccc43)[nH]c2c(OC)c1OC (centres unmarked) .
24

Specify measured HCR (hypoxic cytotoxicity ratio) SKOV3 for CN(C)CCOc1ccc2[nH]c(C(=O)N3CC(CCl)c4c3cc([N+](=O)[O-])c3cc(S(=O)(=O)N(C)C)ccc43)cc2c1 (centres unmarked) .
2.4

Specify measured HCR (hypoxic cytotoxicity ratio) SKOV3 for CN(C)CCOc1ccc2[nH]c(C(=O)N3CC(CCl)c4c3cc([N+](=O)[O-])c3ccc(S(N)(=O)=O)cc43)cc2c1 (centres unmarked) .
21

Specify measured HCR (hypoxic cytotoxicity ratio) SKOV3 for COc1cc2cc(C(=O)N3CC(CCl)c4c3cc([N+](=O)[O-])c3ccc(C(=O)NCCN(C)C)cc43)[nH]c2c(OC)c1OC (centres unmarked) .
16

Specify measured HCR (hypoxic cytotoxicity ratio) SKOV3 for COc1ccc(/C=C/C(=O)N2CC(CCl)c3c2cc([N+](=O)[O-])c2cc(C(=O)NCCO)ccc32)cc1 (centres unmarked) .
4.7

Specify measured HCR (hypoxic cytotoxicity ratio) SKOV3 for CN(C)CCOc1ccc2[nH]c(C(=O)N3CC(CCl)c4c3cc([N+](=O)[O-])c3c([N+](=O)[O-])cccc43)cc2c1 (centres unmarked) .
2.9

Specify measured HCR (hypoxic cytotoxicity ratio) SKOV3 for CN(C)CCOc1ccc2[nH]c(C(=O)N3CC(CCl)c4c3cc([N+](=O)[O-])c3c(C#N)cccc43)cc2c1 (centres unmarked) .
1.7

Specify measured HCR (hypoxic cytotoxicity ratio) SKOV3 for COc1ccc(/C=C/C(=O)N2CC(CCl)c3c2cc([N+](=O)[O-])c2cc(S(N)(=O)=O)ccc32)cc1O (centres unmarked) .
31

Specify measured HCR (hypoxic cytotoxicity ratio) SKOV3 for CNS(=O)(=O)c1ccc2c3c(cc([N+](=O)[O-])c2c1)N(C(=O)c1cc2cc(OCCN(C)C)ccc2[nH]1)CC3CCl (centres unmarked) .
21

Just for reference, patent US7718688B2 is where these values come from.
